# system: furin, P09958;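 note: purified furin at 1:10 enzyme:substrate in 50 mM HEPES pH 7.5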
# Sequence (P09958 whole entry): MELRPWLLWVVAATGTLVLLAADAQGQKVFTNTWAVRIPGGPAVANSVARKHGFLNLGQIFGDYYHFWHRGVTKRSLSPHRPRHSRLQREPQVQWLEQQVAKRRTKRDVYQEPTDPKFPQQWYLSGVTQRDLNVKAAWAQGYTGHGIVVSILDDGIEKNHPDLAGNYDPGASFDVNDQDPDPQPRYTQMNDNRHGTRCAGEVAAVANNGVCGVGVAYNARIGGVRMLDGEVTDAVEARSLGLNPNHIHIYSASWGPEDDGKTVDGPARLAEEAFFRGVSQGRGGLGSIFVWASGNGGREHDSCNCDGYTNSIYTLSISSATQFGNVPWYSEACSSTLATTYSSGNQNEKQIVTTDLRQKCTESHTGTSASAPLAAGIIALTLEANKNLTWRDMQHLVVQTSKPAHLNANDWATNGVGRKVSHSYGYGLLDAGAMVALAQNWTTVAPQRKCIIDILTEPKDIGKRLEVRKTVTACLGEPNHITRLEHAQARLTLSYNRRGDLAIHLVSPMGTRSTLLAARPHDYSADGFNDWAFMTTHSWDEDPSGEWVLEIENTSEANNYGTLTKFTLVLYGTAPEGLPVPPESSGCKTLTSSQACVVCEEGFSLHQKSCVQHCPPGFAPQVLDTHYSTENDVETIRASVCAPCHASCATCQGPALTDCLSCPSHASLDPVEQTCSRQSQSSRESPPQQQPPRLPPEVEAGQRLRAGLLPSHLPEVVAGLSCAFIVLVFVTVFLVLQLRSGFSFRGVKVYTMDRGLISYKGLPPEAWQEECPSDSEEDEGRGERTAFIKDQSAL
# assay: furin cleavage Z-score vs untreated control; higher = more cleavage, active = 3.5 or more, inactive = 1 or less, 8 variable residues between constant flanks
# test parameters: 30 min
The other results are listed elsewhere or left out. The hit rate among all sequences tested is not known here.
Would you mind answering with one of these outcomes? active, inactive

Query: # lookup: test call for CARVQRLRRGAGNASASA [FS-1076]
Response: active

Query: Just curious, what result did CANGVCWTVYAGNASASA [HC698] get here?
Response: inactive

Query: // outcome(item) with item = CAHPQRKRRGAGNASASA [FS-538]
Response: active

Query: Tell me the recorded outcome of this test for CAGYFRIRRGAGNASASA [FS-931] .
Response: active

Query: What did this assay record as the result for CARSERSVILAGNASASA [FS-2237] ?
Response: inactive

More entries:
Query: Short answer needed: outcome of this test for CARRRRSLPGAGNASASA [FS-1788] ?
Response: active
